Experiment: qHTS of pediatric cancer cell lines to identify multiple opportunities for drug repurposing: Primary screen for Saos-2 cells (AID 1347097); note: nearly all actives have a fitted effect of over 40% in size
Conditions: Saos-2 viability, CellTiter-Glo ATP luminescence, 48 h; series mostly up to 46 µM
Procedure: Drug repurposing or repositioning has been offered as a strategy for drug development in oncology programs. This approach has special potential for childhood cancers and other rare or orphan diseases, where the expected return on new drug development has been a disincentive to pharmaceuticals. […] We employed a titration-based paradigm (quantitative high-throughput screening or qHTS), where all compounds were tested at multiple concentrations for their effect on cell viability. […]
Records with an inconclusive call do not appear. Active and inactive are the calls of the source. Calls come from the whole dose curve; as a rule, active = well fitted cell-killing curve with a large enough effect; inconclusive = small, poorly fitted or top-dose-only effect; inactive = no such curve, though single readings can be large or run the other way.
Choose one outcome from this list and give only that: active, inactive

Test call for this molecule, please: `CCN1CCC[C@H]1CNC(=O)c1cc(S(N)(=O)=O)ccc1OC`
inactive

And for `OC[C@@H](O)[C@H](O)[C@H](O)[C@@H](O)CO` ?
inactive

What about `O=C(OCC#CCSc1nnc(-c2cccc3ccccc23)o1)c1cc2ccccc2s1` ?
inactive

Please give the result for `CN(C)Cc1cccc(N=C(c2ccccc2)c2c(O)[nH]c3cc(C(=O)N(C)C)ccc23)c1` too.
active

Please give the result for `COc1cc(Nc2ncc(F)c(Nc3ccc4c(n3)NC(=O)C(C)(C)O4)n2)cc(OC)c1OC` too.
active

* * *

assay: qHTS of pediatric cancer cell lines to identify multiple opportunities for drug repurposing: Primary screen for Saos-2 cells (AID 1347097); settings: Saos-2 viability, CellTiter-Glo ATP luminescence, 48 h; series mostly up to 46 µM; note: nearly all actives have a fitted effect of over 40% in size
Records with an inconclusive call do not appear. Active and inactive are the calls of the source. Calls follow the shape of the dose curve; as a rule, active = well fitted cell-killing curve with a large enough effect; inconclusive = small, poorly fitted or top-dose-only effect; inactive = no such curve, though single readings can be large or run the other way.
Assign a class; possible classes are active, inactive

What did this assay record as the result for CN(C)CCC(c1ccccc1)c1ccccn1 (stereo not given) ?
inactive

Another compound to look at: `C=CCc1ccc(O)c(-c2ccc(O)c(CC=C)c2)c1`
active

Lookup `O=C1NC(=O)C(=Cc2ccc3nccnc3c2)S1`
active

Then COc1ccc(-c2oc3c(CC=C(C)C)c(OC4O[C@H](CO)[C@@H](O)[C@H](O)[C@@H]4O)cc(O)c3c(=O)c2OC2O[C@@H](C)[C@H](O)[C@@H](O)[C@@H]2O)cc1 (stereo not given in full) ?
active

Moving on to NC1CCC(Nc2nc(Nc3ccc(C(=O)N4CCCCC4)cc3)c3ncn(-c4cccc(F)c4)c3n2)CC1 (stereo not given)
inactive

Repeat for the following compound: `Cc1cnc(C(=O)O)c[n+]1[O-]`
inactive

Entry to check: `CC=CC(=O)N(CC)c1ccccc1C`
inactive

# repeat for `O=C1NCC2(CCN(CCc3ccccc3)CC2)O1`
inactive

Same question, O=c1c(-c2ccc(O)cc2)coc2cc(OC3O[C@H](CO)[C@H](O)[C@H](O)[C@H]3O)cc(O)c12 (stereo not given in full) this time
inactive

Could you do the same for `CCc1ccc(OCc2ccccc2C(=O)Nc2ccc3nc(C)cc(N)c3c2)cc1` , please?
active

* * *

assay: Quantitative High-Throughput drug screen in 47 multiple myeloma cell lines against the NCATS MIPE library collection: KMS20_JCRB cell viability assay (AID 1918973); conditions: CellTiter-Glo ATP, 48 h; series mostly up to 45.8 µM; note: nearly all actives have a fitted effect of over 45% in size
Inconclusive results are not listed. Active and inactive are the calls of the source. Calls come from the whole dose curve; as a rule, active = well fitted cell-killing curve with a large enough effect; inconclusive = small, poorly fitted or top-dose-only effect, or effect the other way; inactive = no such curve, though single readings can be large or run the other way.
A correct response names exactly one class from active, inactive

Give the logged outcome of this assay for the following compound: `CCC(=O)NC[C@H](Cc1ccc(OCCc2nc(-c3ccccc3)oc2C)cc1)NC(C)=CC(=O)c1ccc(C(F)(F)F)cc1`
inactive

Proceed to `C=CCc1ccc(O)c(-c2ccc(O)c(CC=C)c2)c1`
active

Field entry: Clc1ccc(C(c2ccc(Cl)cc2)n2cc[n+](CC(OCc3ccc(Cl)cc3Cl)c3ccc(Cl)cc3Cl)c2)cc1 (stereo unspecified)
active

Param item: `CC(C)(C)OC(=O)N[C@H]1CCCCCC=C[C@@H]2C[C@@]2(C(=O)NS(=O)(=O)C2CC2)NC(=O)[C@@H]2C[C@@H](OC(=O)N3Cc4cccc(F)c4C3)CN2C1=O`
inactive

Another compound to look at: `O=c1c(O)c(-c2ccc(O)cc2)oc2cc(O)cc(O)c12`
active

Lookup `Nc1ncnc2c1ncn2[C@@H]1O[C@H](CO)C[C@@H]1O`
inactive

Entry `COc1ccc(-c2coc3cc(O)cc(O)c3c2=O)cc1` please
inactive

Now the compound `NS(=O)(=O)c1cccc2c1C(=O)c1cccc(O)c1C2=O`
active

# iterate: `COc1cc(Nc2ncc(F)c(Nc3ccc4c(n3)NC(=O)C(C)(C)O4)n2)cc(OC)c1OC`
active

And what about the compound `c1ccc2c(Cc3c[nH]c4ccccc34)c[nH]c2c1` ?
active

Moving on to the next compound: `CC1(C)CCC2=C(O1)c1ccccc1C(=O)C2=O`
active

Same for `C[C@H]1[C@H](NC(=O)C(=NOC(C)(C)C(=O)O)c2csc(N)n2)C(=O)N1S(=O)(=O)O`
active

Now the same for `CC(C)(C)NC(=O)Nc1cccc(Nc2ncc(F)c(NC(C)(C)CO)n2)c1`
inactive

What about `CC(C)n1cnc2c(NCCCCCCNC(=O)OC(C)(C)C)nc(NCCO)nc21` ?
active

Then this compound: CC(=O)OC1C(C)OC(Oc2c(-c3ccc(O)cc3)oc3cc(O)cc(O)c3c2=O)C(O)C1OC(C)=O (stereo unspecified)
active

Try `Cc1ccc(/C=N/NC(=O)c2ccccc2Oc2ccccc2)o1` next.
active

Request: COc1ccc2cc(-c3nc(-c4ccc(S(C)=O)cc4)[nH]c3-c3ccncc3)ccc2c1 (stereo unspecified)
active

Request: `O=C1c2ccccc2-[n+]2ccc3c([nH]c4ccccc43)c21`
active

Do the same for `COc1ccc(-c2nc(N3CCOCC3)c3sc(CN(C)c4ncc(C(=O)NO)cn4)cc3n2)cn1` please
inactive

Likewise for `O=c1cc(N2CCOCC2)oc2c(-c3cccc4c3sc3ccccc34)cccc12` ?
active

Request: O=C1Nc2ccc(Cl)cc2C(C#CC2CC2)(C(F)(F)F)O1 (stereo unspecified)
active

Please answer likewise for `Nc1ncnc2c1nc(Cl)n2[C@@H]1O[C@H](CO)[C@@H](O)[C@@H]1O`
active

# iterate: `CO[C@H]1C[C@@H]2CC[C@@H](C)[C@@](O)(O2)C(=O)C(=O)N2CCCC[C@@H]2C(=O)O[C@H]([C@H](C)C[C@@H]2CC[C@H](OC(=O)C(C)(CO)CO)[C@H](OC)C2)CC(=O)[C@H](C)C=C(C)[C@@H](O)[C@@H](OC)C(=O)[C@H](C)C[C@H](C)C=CC=CC=C1C`
active

Also `O=C(O)c1ccc(-c2cc3cccnc3c(-c3ccc4nonc4c3)n2)cc1` , if possible.
active

Can you check COC1CCC(N(C(=O)C2CCC(C)CC2)c2cc(C3=CCCCC3)sc2C(=O)O)CC1 (stereo unspecified) next?
inactive

And `CON=C(C(=O)N[C@@H]1C(=O)N2C(C(=O)OCOC(=O)C(C)(C)C)=C(C=Cc3scnc3C)CS[C@H]12)c1csc(N)n1` ?
inactive

Then this compound: `CC(C)C[C@H](CC(=O)O)C(=O)N[C@@H](Cc1c[nH]c2ccccc12)C(=O)N[C@@H](C)c1ccccc1`
inactive

Now try COc1ccc(C2Sc3ccccc3N(CCN(C)C)C(=O)C2OC(C)=O)cc1 (stereo unspecified) .
inactive

// next record `CCn1c(C(=O)N(C2CC2)C2CC2)cc2c3c(ncn3C)c(Nc3cc(C)n(C)n3)nc21`
active

// next record `CO[C@H]1C(=O)[C@]2(C)[C@@H](OC)C[C@H]3OC[C@@]3(OC(C)=O)[C@H]2[C@H](OC(=O)c2ccccc2)[C@]2(O)C[C@H](OC(=O)[C@H](O)[C@@H](NC(=O)OC(C)(C)C)c3ccccc3)C(C)=C1C2(C)C`
inactive

Next record, please: `COc1ccc(-c2cc(=O)c3c(O)cc(O)cc3o2)cc1O`
active
